experiment: Selectivity index, IC50 for bovine trypsin/IC50 for human uPA
property-name: Selectivity index
The answer should be written as a number, with no unit following it.

Query block: Provide only the value of recorded Selectivity index for Cc1cccc(C)c1C(=O)N[C@H](CO)C(=O)N[C@@H](C)C(=O)NC(Cc1ccc(NC(=N)N)cc1)P(=O)(Oc1ccccc1)Oc1ccccc1 (stereo partly specified)
Result block: 40

Query block: Provide only the value of recorded Selectivity index for C[C@H](NC(=O)[C@@H](CO)NC(=O)OCc1ccccc1)C(=O)NC(Cc1ccc(NC(=N)N)cc1)P(=O)(Oc1ccccc1)Oc1ccccc1 (stereo partly specified)
Result block: 70

Query block: Provide only the value of recorded Selectivity index for Cc1cccc(C(=O)N[C@H](CO)C(=O)N[C@@H](C)C(=O)NC(Cc2ccc(NC(=N)N)cc2)P(=O)(Oc2ccccc2)Oc2ccccc2)c1 (stereo partly specified)
Result block: 40

Query block: Provide only the value of recorded Selectivity index for C[C@H](NC(=O)[C@@H](CO)NS(=O)(=O)c1ccc(C#N)cc1)C(=O)NC(Cc1ccc(NC(=N)N)cc1)P(=O)(Oc1ccccc1)Oc1ccccc1 (stereo partly specified)
Result block: 70

Query block: Provide only the value of recorded Selectivity index for C[C@H](NC(=O)[C@@H](CO)NC(=O)c1cccs1)C(=O)NC(Cc1ccc(NC(=N)N)cc1)P(=O)(Oc1ccccc1)Oc1ccccc1 (stereo partly specified)
Result block: 40

Query block: Provide only the value of recorded Selectivity index for C[C@H](NC(=O)[C@@H](CO)NS(=O)(=O)c1ccc(Br)cc1)C(=O)NC(Cc1ccc(NC(=N)N)cc1)P(=O)(Oc1ccccc1)Oc1ccccc1 (stereo partly specified)
Result block: 36

Query block: Provide only the value of recorded Selectivity index for C[C@H](NC(=O)[C@@H](CO)NS(=O)(=O)Cc1ccccc1)C(=O)NC(Cc1ccc(NC(=N)N)cc1)P(=O)(Oc1ccccc1)Oc1ccccc1 (stereo partly specified)
Result block: 90

Query block: Provide only the value of recorded Selectivity index for Cc1ccc(C(=O)N[C@H](CO)C(=O)N[C@@H](C)C(=O)NC(Cc2ccc(NC(=N)N)cc2)P(=O)(Oc2ccccc2)Oc2ccccc2)cc1 (stereo partly specified)
Result block: 23

Query block: Provide only the value of recorded Selectivity index for C[C@H](NC(=O)[C@@H](CO)NC(=O)c1ccccc1)C(=O)NC(Cc1ccc(NC(=N)N)cc1)P(=O)(Oc1ccccc1)Oc1ccccc1 (stereo partly specified)
Result block: 80

Query block: Provide only the value of recorded Selectivity index for C[C@H](NC(=O)[C@@H](CO)NS(=O)(=O)c1ccccc1)C(=O)NC(Cc1ccc(NC(=N)N)cc1)P(=O)(Oc1ccccc1)Oc1ccccc1 (stereo partly specified)
Result block: 60

Query block: Provide only the value of recorded Selectivity index for C[C@H](NC(=O)[C@@H](CO)NS(=O)(=O)c1cccs1)C(=O)NC(Cc1ccc(NC(=N)N)cc1)P(=O)(Oc1ccccc1)Oc1ccccc1 (stereo partly specified)
Result block: 65

Query block: Provide only the value of recorded Selectivity index for CC(=O)Nc1ccc(OP(=O)(Oc2ccc(NC(C)=O)cc2)C(Cc2ccc(NC(=N)N)cc2)NC(=O)[C@H](C)NC(=O)[C@@H](CO)NC(=O)OCc2ccccc2)cc1 (stereo partly specified)
Result block: 30

Query block: Provide only the value of recorded Selectivity index for COc1ccc(S(=O)(=O)N[C@H](CO)C(=O)N[C@@H](C)C(=O)NC(Cc2ccc(NC(=N)N)cc2)P(=O)(Oc2ccccc2)Oc2ccccc2)cc1 (stereo partly specified)
Result block: 60

Query block: Provide only the value of recorded Selectivity index for C[C@H](NC(=O)[C@@H](CO)NC(=O)C1C2CC3CC(C2)CC1C3)C(=O)NC(Cc1ccc(NC(=N)N)cc1)P(=O)(Oc1ccccc1)Oc1ccccc1 (stereo partly specified)
Result block: 20

Query block: Provide only the value of recorded Selectivity index for Cc1ccccc1C(=O)N[C@H](CO)C(=O)N[C@@H](C)C(=O)NC(Cc1ccc(NC(=N)N)cc1)P(=O)(Oc1ccccc1)Oc1ccccc1 (stereo partly specified)
Result block: 30

Query block: Provide only the value of recorded Selectivity index for C[C@H](NC(=O)[C@@H](CO)NS(=O)(=O)c1cccc2ccccc12)C(=O)NC(Cc1ccc(NC(=N)N)cc1)P(=O)(Oc1ccccc1)Oc1ccccc1 (stereo partly specified)
Result block: 50

----------
property-name: pIC50
Please express pIC50 as -log10 of the molar concentration.

Query block: # assay system Plasminogen (Homo sapiens): give pIC50 of C[C@H](NC(=O)[C@@H](CO)NS(=O)(=O)c1ccccc1)C(=O)NC(Cc1ccc(NC(=N)N)cc1)P(=O)(Oc1ccccc1)Oc1ccccc1 (some centres undefined)
Result block: 5.72

Query block: # assay system Plasminogen (Homo sapiens): give pIC50 of C[C@H](NC(=O)[C@@H](CO)NC(=O)c1cccs1)C(=O)NC(Cc1ccc(N=C(N)N)cc1)P(=O)(Oc1ccccc1)Oc1ccccc1 (some centres undefined)
Result block: 5.00

Query block: # assay system Plasminogen (Homo sapiens): give pIC50 of C[C@H](NC(=O)[C@@H](CO)NS(=O)(=O)c1cccc2ccccc12)C(=O)NC(Cc1ccc(N=C(N)N)cc1)P(=O)(Oc1ccccc1)Oc1ccccc1 (some centres undefined)
Result block: 6.00

Query block: # assay system Plasminogen (Homo sapiens): give pIC50 of C[C@H](NC(=O)[C@@H](CO)NS(=O)(=O)c1cccs1)C(=O)NC(Cc1ccc(N=C(N)N)cc1)P(=O)(Oc1ccccc1)Oc1ccccc1 (some centres undefined)
Result block: 5.81

----------
property-name: log10 IC50 (log10 of the value in µM)
Kindly note that the scale is log10 and the underlying IC50 is in µM.

Query block: # assay system Plasminogen (Homo sapiens): give log10 IC50 of Cc1cccc(C(=O)N[C@H](CO)C(=O)N[C@@H](C)C(=O)NC(Cc2ccc(N=C(N)N)cc2)P(=O)(Oc2ccccc2)Oc2ccccc2)c1 (stereo partly specified)
Result block: 0.90

Query block: # assay system Plasminogen (Homo sapiens): give log10 IC50 of Cc1cccc(C)c1C(=O)N[C@H](CO)C(=O)N[C@@H](C)C(=O)NC(Cc1ccc(NC(=N)N)cc1)P(=O)(Oc1ccccc1)Oc1ccccc1 (stereo partly specified)
Result block: 0.62

Query block: # assay system Plasminogen (Homo sapiens): give log10 IC50 of COc1ccc(S(=O)(=O)N[C@H](CO)C(=O)N[C@@H](C)C(=O)NC(Cc2ccc(NC(=N)N)cc2)P(=O)(Oc2ccccc2)Oc2ccccc2)cc1 (stereo partly specified)
Result block: 0.23

Query block: # assay system Plasminogen (Homo sapiens): give log10 IC50 of C[C@H](NC(=O)[C@@H](CO)NC(=O)c1ccccc1)C(=O)NC(Cc1ccc(N=C(N)N)cc1)P(=O)(Oc1ccccc1)Oc1ccccc1 (stereo partly specified)
Result block: 1.18

Query block: # assay system Plasminogen (Homo sapiens): give log10 IC50 of C[C@H](NC(=O)[C@@H](CO)NS(=O)(=O)c1ccc(Br)cc1)C(=O)NC(Cc1ccc(NC(=N)N)cc1)P(=O)(Oc1ccccc1)Oc1ccccc1 (stereo partly specified)
Result block: -0.05

Query block: # assay system Plasminogen (Homo sapiens): give log10 IC50 of Cc1ccccc1C(=O)N[C@H](CO)C(=O)N[C@@H](C)C(=O)NC(Cc1ccc(NC(=N)N)cc1)P(=O)(Oc1ccccc1)Oc1ccccc1 (stereo partly specified)
Result block: 0.86

----------
organism: Homo sapiens; assay: Selectivity index, IC50 for human plasmin/IC50 for human uPA
I'd be grateful if you could share measured Selectivity index for these entries.
The answer should be written as a number, with no unit following it.

Query block: Provide only the value of recorded Selectivity index for Cc1ccccc1C(=O)N[C@H](CO)C(=O)N[C@@H](C)C(=O)NC(Cc1ccc(NC(=N)N)cc1)P(=O)(Oc1ccccc1)Oc1ccccc1 (some centres not stated)
Result block: 1400

Query block: Provide only the value of recorded Selectivity index for C[C@H](NC(=O)[C@@H](CO)NS(=O)(=O)c1cccc2ccccc12)C(=O)NC(Cc1ccc(NC(=N)N)cc1)P(=O)(Oc1ccccc1)Oc1ccccc1 (some centres not stated)
Result block: 155

Query block: Provide only the value of recorded Selectivity index for C[C@H](NC(=O)[C@@H](CO)NS(=O)(=O)c1cccs1)C(=O)NC(Cc1ccc(NC(=N)N)cc1)P(=O)(Oc1ccccc1)Oc1ccccc1 (some centres not stated)
Result block: 1000

Query block: Provide only the value of recorded Selectivity index for C[C@H](NC(=O)[C@@H](CO)NS(=O)(=O)c1ccc(Br)cc1)C(=O)NC(Cc1ccc(NC(=N)N)cc1)P(=O)(Oc1ccccc1)Oc1ccccc1 (some centres not stated)
Result block: 136

Query block: Provide only the value of recorded Selectivity index for C[C@H](NC(=O)[C@@H](CO)NC(=O)C1C2CC3CC(C2)CC1C3)C(=O)NC(Cc1ccc(NC(=N)N)cc1)P(=O)(Oc1ccccc1)Oc1ccccc1 (some centres not stated)
Result block: 600

Query block: Provide only the value of recorded Selectivity index for COc1ccc(S(=O)(=O)N[C@H](CO)C(=O)N[C@@H](C)C(=O)NC(Cc2ccc(NC(=N)N)cc2)P(=O)(Oc2ccccc2)Oc2ccccc2)cc1 (some centres not stated)
Result block: 293

Query block: Provide only the value of recorded Selectivity index for Cc1cccc(C(=O)N[C@H](CO)C(=O)N[C@@H](C)C(=O)NC(Cc2ccc(NC(=N)N)cc2)P(=O)(Oc2ccccc2)Oc2ccccc2)c1 (some centres not stated)
Result block: 1800
